Value source: ChEMBL document CHEMBL1137852

# protocolNotes: Eliciting activity on Tc (taxuyunnanine C) production in cell cultures of Taxus chinensis
# Type: functional
Assign class by Activity: not lower than 400 mg/L means satisfied; lower than 400 mg/L means not satisfied.

*Q* Quick check, Activity >= 400 mg/L? CC/C=C/CC1C(=O)CCC1CC(=O)OC (stereo unspecified)
*A* not satisfied

*Q* Quick check, Activity >= 400 mg/L? CC/C=C/CC1C(=O)CCC1CC(=O)OCC(F)(F)F (stereo unspecified)
*A* satisfied

*Q* Quick check, Activity >= 400 mg/L? CC/C=C/CC1C(=O)CCC1CC(=O)OCCO (stereo unspecified)
*A* satisfied

*Q* Quick check, Activity >= 400 mg/L? CC/C=C/CC1C(=O)CCC1CC(=O)OCCOCCO (stereo unspecified)
*A* satisfied

*Q* Quick check, Activity >= 400 mg/L? CC/C=C/CC1C(=O)CCC1CC(=O)OCC(F)(F)C(F)(F)F (stereo unspecified)
*A* satisfied

We now examine a further compound.
*Q* Quick check, Activity >= 400 mg/L? CC/C=C/CC1C(=O)CCC1CC(=O)OCCC (stereo unspecified)
*A* not satisfied
